Known OD450 of a selection of binders
tgt: T1, human MSLN-R2-his protein (human, UniProt Q13421 391-486)
T1 construct: Region 2 of human mesothelin, made in HEK293E cells, His-tagged; also called human MSLN-R2 protein; hMSLN-R2-his; not shown: His tag
experiment-notes: ELISA on coated MSLN-R2; antibody 0.001 nM
Just the number in OD450, nothing appended.

// worked examples, OD450 included
| binder | outcome-measure | readout-value |
| --- | --- | --- |
| S009-F8-19.21 (antibody, human IgG1, kappa, V domains shown) VH: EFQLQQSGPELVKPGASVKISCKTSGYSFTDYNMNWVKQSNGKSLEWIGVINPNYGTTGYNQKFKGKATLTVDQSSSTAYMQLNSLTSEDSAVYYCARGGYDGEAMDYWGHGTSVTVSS VL: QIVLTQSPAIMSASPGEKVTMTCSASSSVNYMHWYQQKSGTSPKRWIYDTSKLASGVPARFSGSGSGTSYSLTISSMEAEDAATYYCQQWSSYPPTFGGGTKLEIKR | OD450 | 0.04 |
| S009-F8-36.12 (antibody, human IgG1, kappa, V domains shown) VH: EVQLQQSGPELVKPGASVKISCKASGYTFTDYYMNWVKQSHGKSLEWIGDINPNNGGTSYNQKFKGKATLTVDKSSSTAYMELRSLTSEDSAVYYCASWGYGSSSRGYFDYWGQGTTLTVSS VL: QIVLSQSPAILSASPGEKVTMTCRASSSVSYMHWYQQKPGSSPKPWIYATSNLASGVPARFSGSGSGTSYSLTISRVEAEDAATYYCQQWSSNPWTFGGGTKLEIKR | OD450 | 0.04 |
| S009-F8-27.1 (antibody, human IgG1, kappa, V domains shown) VH: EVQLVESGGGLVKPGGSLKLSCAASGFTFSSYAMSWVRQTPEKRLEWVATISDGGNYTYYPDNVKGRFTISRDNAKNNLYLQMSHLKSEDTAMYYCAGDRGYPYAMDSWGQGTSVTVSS VL: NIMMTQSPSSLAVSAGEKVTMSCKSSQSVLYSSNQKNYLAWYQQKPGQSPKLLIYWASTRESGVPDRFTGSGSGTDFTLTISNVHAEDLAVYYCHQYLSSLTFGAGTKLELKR | OD450 | 0.05 |

Task item: Which measured OD450 value corresponds to S009-F8-12.13 (antibody, human IgG1, kappa, V domains shown) VH: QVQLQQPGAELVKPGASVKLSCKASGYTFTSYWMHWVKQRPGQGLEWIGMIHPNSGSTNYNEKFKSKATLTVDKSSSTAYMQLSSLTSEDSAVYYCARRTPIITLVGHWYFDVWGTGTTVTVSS VL: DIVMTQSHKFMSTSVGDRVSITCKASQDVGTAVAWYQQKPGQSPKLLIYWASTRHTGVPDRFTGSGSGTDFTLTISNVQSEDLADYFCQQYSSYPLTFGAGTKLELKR ?
Reply: 0.04

Task item: Which measured OD450 value corresponds to S009-F8-9.16 (antibody, human IgG1, kappa, V domains shown) VH: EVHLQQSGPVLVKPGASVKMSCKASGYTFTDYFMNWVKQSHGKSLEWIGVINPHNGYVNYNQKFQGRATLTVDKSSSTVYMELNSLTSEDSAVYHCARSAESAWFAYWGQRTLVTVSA VL: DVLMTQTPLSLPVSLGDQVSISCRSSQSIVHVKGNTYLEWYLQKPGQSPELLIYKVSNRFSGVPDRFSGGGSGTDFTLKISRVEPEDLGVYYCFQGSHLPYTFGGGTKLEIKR ?
Reply: 0.04

Task item: Which measured OD450 value corresponds to S009-F8-4.5 (antibody, human IgG1, kappa, V domains shown) VH: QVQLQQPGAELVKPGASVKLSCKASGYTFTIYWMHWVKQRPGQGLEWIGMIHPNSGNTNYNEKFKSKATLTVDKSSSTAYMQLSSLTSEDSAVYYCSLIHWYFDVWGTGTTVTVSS VL: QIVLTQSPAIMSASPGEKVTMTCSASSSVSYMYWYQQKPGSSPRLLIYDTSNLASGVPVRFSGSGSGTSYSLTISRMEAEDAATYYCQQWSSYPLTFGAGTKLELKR ?
Reply: 0.05

Task item: Which measured OD450 value corresponds to S009-F8-28.23 (antibody, human IgG1, kappa, V domains shown) VH: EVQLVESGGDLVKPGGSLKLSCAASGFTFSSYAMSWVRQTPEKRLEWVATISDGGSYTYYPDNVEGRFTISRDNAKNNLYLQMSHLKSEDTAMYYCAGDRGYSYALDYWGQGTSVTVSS VL: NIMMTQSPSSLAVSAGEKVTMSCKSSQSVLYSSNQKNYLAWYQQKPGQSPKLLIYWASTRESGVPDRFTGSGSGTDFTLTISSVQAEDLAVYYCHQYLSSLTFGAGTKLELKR ?
Reply: 0.04

Task item: Which measured OD450 value corresponds to S009-F8-7.5 (antibody, human IgG1, kappa, V domains shown) VH: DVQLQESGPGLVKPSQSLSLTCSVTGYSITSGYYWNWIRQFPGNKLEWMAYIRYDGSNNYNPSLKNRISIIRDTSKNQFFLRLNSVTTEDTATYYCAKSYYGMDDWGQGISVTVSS VL: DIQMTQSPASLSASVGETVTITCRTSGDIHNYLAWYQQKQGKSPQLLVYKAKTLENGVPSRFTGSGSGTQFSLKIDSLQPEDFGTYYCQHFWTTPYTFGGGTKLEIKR ?
Reply: 0.09
